Test system: OvCAR3 cells
Protocol Description: Cellular proliferation / Cytotoxicity assay (Alamar Blue / Resazurin cell viability)
Assay type: cell-based
Setup Conditions: Homo sapiens, OVCAR-3, 48h incubation, read-out: Anti-proliferative / Cytotoxic activity (OvCAR3 cells)
Parameter: IC50

q: Form entry - test system: OvCAR3 cells; read-out: IC50; compound: Fc1ccc2nc(-c3ccc(CN4CCC(c5n[nH]c(-c6ccccn6)n5)CC4)cc3)c(-c3ccccc3)n2c1 [Example 22]
a: < 10 µM

q: Recorded IC50 for COc1ccc(-c2c(-c3ccc(CN4CCC(c5n[nH]c(-c6ccccn6)n5)CC4)cc3)nc3ccccn23)cc1 [Example 15] with OvCAR3 cells, please?
a: > 10 µM
